Give measured In vitro Activity (Relative Activity of SEQ ID NO: 1, %), from cAMP EC50 for each item. Keep answers brief.
Target: human glucagon receptor (human, UniProt P47871 26-477)
Sequence (P47871 26-477): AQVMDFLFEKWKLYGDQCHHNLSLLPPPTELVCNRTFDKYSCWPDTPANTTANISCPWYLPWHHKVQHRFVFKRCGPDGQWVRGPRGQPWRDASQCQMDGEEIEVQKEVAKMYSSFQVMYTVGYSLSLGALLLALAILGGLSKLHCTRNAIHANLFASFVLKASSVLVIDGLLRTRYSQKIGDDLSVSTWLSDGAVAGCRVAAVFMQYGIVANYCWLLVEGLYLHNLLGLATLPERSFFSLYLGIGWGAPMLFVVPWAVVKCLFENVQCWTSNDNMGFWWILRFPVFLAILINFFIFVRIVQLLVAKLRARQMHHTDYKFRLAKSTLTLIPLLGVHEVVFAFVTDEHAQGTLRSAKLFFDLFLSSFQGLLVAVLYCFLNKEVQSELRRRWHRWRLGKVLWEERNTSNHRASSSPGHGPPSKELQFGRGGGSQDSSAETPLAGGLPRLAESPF
Assay: cell-based or functional assay
Positions of bridges follow the written chain, without caps; N, C: chain ends. Non-standard residues stand in square brackets, D forms with d. No end group written: not given here. Aib = CC(C)(N)C(=O)O
Numbers only, in %.

In vitro Activity (Relative Activity of SEQ ID NO: 1, %), from cAMP EC50 in this record for Y[Aib]QGTFTSDYSKYLDCKRAKEFVQWLMNT (not fully specified (bridges)) [glucagon derivative of SEQ ID NO: 14] : 18.1

// field: In vitro Activity (Relative Activity of SEQ ID NO: 1, %), from cAMP EC50; key: W[Aib]QGTFTSDYSKYLDECRAKDFVQWLMNT (bridge 16-20; also: ring between positions 16 and 20, kind not given here) [glucagon derivative of SEQ ID NO: 26] ; value = 1

The binder identified as Y[Aib]QGTFCSDYSKYLDERRAKEFVQWLMNT (bridge 16-20; also: ring between positions 16 and 20, kind not given here) [glucagon derivative of SEQ ID NO: 38] registered its In vitro Activity (Relative Activity of SEQ ID NO: 1, %), from cAMP EC50 at 167

// sample Y[Aib]QGTFTSDYSKCLDERRAKDFVQWLMNT (bridge 16-20; also: ring between positions 16 and 20, kind not given here) [glucagon derivative of SEQ ID NO: 29] , its In vitro Activity (Relative Activity of SEQ ID NO: 1, %), from cAMP EC50 was 61.3

Provide the reported In vitro Activity (Relative Activity of SEQ ID NO: 1, %), from cAMP EC50 of each entry below, same order.
1. Y[Aib]QGTFTSDYSCYLDSRRAQDFVQWLMNT [glucagon derivative of SEQ ID NO: 13]
2. Y[Aib]QGTFTSDYSKYLDEKCAKEFVQWLMNT (bridge 16-20; also: ring between positions 16 and 20, kind not given here) [glucagon derivative of SEQ ID NO: 21]
3. SQGTFTSDYSKYLDECRAKEFVQWLMNT (lactam 15-19) [glucagon derivative of SEQ ID NO: 32]
4. Y[Aib]QGTFTSDYSKYLDEKRAKEFVQWLMNTC (bridge 16-20; also: ring between positions 16 and 20, kind not given here) [glucagon derivative of SEQ ID NO: 12]
5. Y[Aib]QGTFTSDYSKYLDERRAKEFVQWLMNTC (bridge 16-20; also: ring between positions 16 and 20, kind not given here) [glucagon derivative of SEQ ID NO: 37]

Result string:
5.2
57.8
0.7
56.3
226

All figures here come from patent US20180186853A1.
